Measured values drawn from patent US10953016B2 for this set.

ASSAY: Light exposure test of crystals (E isomer by HPLC)
Assay type: physicochemical
REPORTED_CONDITIONS: light exposed sample
Counter-ions that a name gives are not always drawn.
This listing pairs compounds with measured E isomer (Retention time 38 minutes) Light exposed sample.
MEASUREMENT_KIND: E isomer (Retention time 38 minutes) Light exposed sample (area %)

[[record]]
compound = "CC#C/C(=N\\OC[C@H]1COCCN1)c1ccc2ncnc(Nc3ccc(OCc4cccc(F)c4)c(Cl)c3)c2c1 [Monohydrochloride crystalline form II]"
value_units = "area %"
data_value = 1.21

[[record]]
compound = "CC#C/C(=N\\OC[C@H]1COCCN1)c1ccc2ncnc(Nc3ccc(OCc4cccc(F)c4)c(Cl)c3)c2c1 [Mono-p-toluenesulfonate crystalline form I]"
value_units = "area %"
data_value = 32.86

[[record]]
compound = "CC#C/C(=N\\OC[C@H]1COCCN1)c1ccc2ncnc(Nc3ccc(OCc4cccc(F)c4)c(Cl)c3)c2c1 [Free base crystal]"
value_units = "area %"
data_value = 2.59

[[record]]
compound = "CC#C/C(=N\\OC[C@H]1COCCN1)c1ccc2ncnc(Nc3ccc(OCc4cccc(F)c4)c(Cl)c3)c2c1 [Monohydrochloride crystalline form I]"
value_units = "area %"
data_value = 4.41


====

ASSAY: Light exposure test of crystals (E isomer by HPLC)
Format: physicochemical
REPORTED_CONDITIONS: light exposed sample minus dark control
Structures can show the parent of a compound that is named as a salt.
Measured E isomer (Retention time 38 minutes) Increased amount accompanies every entry in the list below.
MEASUREMENT_KIND: E isomer (Retention time 38 minutes) Increased amount

[[record]]
compound = "CC#C/C(=N\\OC[C@H]1COCCN1)c1ccc2ncnc(Nc3ccc(OCc4cccc(F)c4)c(Cl)c3)c2c1 [Mono-p-toluenesulfonate crystalline form I]"
data_value = "32.76 area %"

[[record]]
compound = "CC#C/C(=N\\OC[C@H]1COCCN1)c1ccc2ncnc(Nc3ccc(OCc4cccc(F)c4)c(Cl)c3)c2c1 [Monohydrochloride crystalline form I]"
data_value = "3.78 area %"

[[record]]
compound = "CC#C/C(=N\\OC[C@H]1COCCN1)c1ccc2ncnc(Nc3ccc(OCc4cccc(F)c4)c(Cl)c3)c2c1 [Free base crystal]"
data_value = "2.59 area %"

[[record]]
compound = "CC#C/C(=N\\OC[C@H]1COCCN1)c1ccc2ncnc(Nc3ccc(OCc4cccc(F)c4)c(Cl)c3)c2c1 [Monohydrochloride crystalline form II]"
data_value = "−0.23 area %"

